Counter-ions that a name gives are not always drawn.

Molecule	melting point
CCN1CCN(c2nc(-c3ccc(OCCn4ccnc4)cc3)cc3ccccc23)CC1 (as salt: hydrochloride) [Example 56]	160 to 162 °C
CCN1CCN(c2nc(/C=C/c3ccccc3S(C)(=O)=O)cc3ccccc23)CC1.Cl [Example 202]	146 to 149 °C
CCN1CCN(c2nc(-c3cc(OC)ccc3OC)cc3ccccc23)CC1.Cl	189 to 191 °C
CCN1CCN(c2nc(-c3ccc(N4CCC(O)CC4)cc3)cc3ccccc23)CC1 (as salt: hydrochloride) [Example 97, Trihydrochloride]	178 °C
CCN1CCN(c2nc(-c3ccc(CCC(C)(C)O)cc3)cc3ccccc23)CC1 (as salt: hydrochloride) [Example 388, Dihydrochloride]	205 to 206 °C
COc1ccc(-c2cc3ccsc3c(N3CCN(CCO)CC3)n2)cc1 (as salt: hydrochloride) [Example 276]	129 to 131 °C
CCN1CCN(c2nc(-c3ccc(C(O)C4CCCCC4)cc3)cc3ccccc23)CC1 (centres unmarked) (as salt: hydrochloride) [Example 409]	153 to 155 °C
CCN1CCN(c2nc(-c3ccc(N4CC[S+]([O-])CC4)nc3)cc3ccccc23)CC1 (as salt: hydrochloride) [Example 151, trihydrochloride]	170 °C
CCNS(=O)(=O)Cc1ccc(-c2cc3ccccc3c(N3CCN(CC)CC3)n2)cc1 (as salt: hydrochloride) [Example 80]	154 to 156 °C
CCCC(=O)Nc1ncc(-c2cc3ccccc3c(N3CCN(CC)CC3)n2)cn1 (as salt: hydrochloride) [Example 174]	216 to 219 °C
CCN1CCN(c2nc(C(O)c3ccccc3OC)cc3ccccc23)CC1 (centres unmarked) (as salt: oxalate)	100 to 103 °C
CCN1CCN(c2nc(-c3ccc4c(c3)CCC4O)cc3ccccc23)CC1 (centres unmarked) (as salt: oxalate) [Example 415]	193 to 195 °C
CCN1CCN(c2nc(-c3ccc(OCCO)cc3)cc3ccsc23)CC1 (as salt: hydrochloride) [Example 259]	135 to 136 °C
CCNC(=O)Oc1ccc(-c2cc3ccccc3c(N3CCN(CC)CC3)n2)cc1 (as salt: hydrochloride) [Example 59]	146 to 150 °C
